src = patent US20240400696A1

- target of assay: CD3
- Sequence (P07766 23-126): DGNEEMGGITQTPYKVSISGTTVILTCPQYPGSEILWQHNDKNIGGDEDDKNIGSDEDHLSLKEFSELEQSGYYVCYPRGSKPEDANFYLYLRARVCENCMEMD
- assay explanation: Octet, crude lysate
pKd: −log10 of the molar value.
assay metric: pKd

| binder | observed measurement |
| --- | --- |
| AC3397 (bispecific antibody, V domains shown) VH: EVQLLESGGGIVQPGGSLKLSCAASGFTFNTYAMNWVRQAPGKGLEWVARIRSPYNNYATYYADSVKDRFTISRDDSKNTVYLQMNNLKTEDTAVYYCVRHENFGNSYVSWFAHWGQGTLVTVSS VL: ELVVTQEPSLTVSPGGTVTLTCRSSNGAVTSSNYANWVQQKPGQAPRGLIGGTNKRAPGTPARFSGSLLGGKAALTLSGVQPEDEAVYYCALWYPNLWVFGGGTKLTVL | 7.29 |
| AC3422 (bispecific antibody, V domains shown) VH: EVQLLESGGGIVQPGGSLKLSCAASGFTFNTYAMNWVRQAPGKGLEWVARIRSKYNNYATYYKDSVKDRFTISRDDSKNTVYLQMNNLKTEDTAVYYCVRHENFGNSYVSWFAHWGQGTLVTVSS VL: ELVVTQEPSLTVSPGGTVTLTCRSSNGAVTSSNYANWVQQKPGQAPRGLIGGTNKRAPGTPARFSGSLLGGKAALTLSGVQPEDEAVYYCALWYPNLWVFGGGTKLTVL | 8.10 |
| AC3408 (bispecific antibody, V domains shown) VH: EVQLLESGGGIVQPGGSLKLSCAASGFTFNTYAMNWVRQAPGKGLEWVARIRSKYNEYATYYADSVKDRFTISRDDSKNTVYLQMNNLKTEDTAVYYCVRHENFGNSYVSWFAHWGQGTLVTVSS VL: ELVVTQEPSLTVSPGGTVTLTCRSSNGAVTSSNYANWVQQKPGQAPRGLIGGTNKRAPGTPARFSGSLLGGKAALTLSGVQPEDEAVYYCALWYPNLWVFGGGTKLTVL | 8.08 |
